Biological target: T1, His9-hMSR1 (human MSR1 extracellular domain) (Homo sapiens, UniProt P21757)
T1 construct: human MSR1 extracellular domain expressed with a N-terminal nonahistidine tag; His9 (nonahistidine) (N); purchased R&D Systems 2708-MS
T1 sequence (P21757 77-451 limits assumed): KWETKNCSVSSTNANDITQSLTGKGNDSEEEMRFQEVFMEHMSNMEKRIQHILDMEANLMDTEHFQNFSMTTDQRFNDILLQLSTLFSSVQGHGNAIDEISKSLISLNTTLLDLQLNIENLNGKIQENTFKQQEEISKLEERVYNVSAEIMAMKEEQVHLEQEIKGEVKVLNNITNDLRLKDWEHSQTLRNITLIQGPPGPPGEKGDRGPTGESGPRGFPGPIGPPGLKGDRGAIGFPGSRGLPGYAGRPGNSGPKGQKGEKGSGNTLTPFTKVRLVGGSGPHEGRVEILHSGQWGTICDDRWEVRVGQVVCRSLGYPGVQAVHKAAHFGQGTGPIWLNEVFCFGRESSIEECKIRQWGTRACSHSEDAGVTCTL
Assay: Biacore surface plasmon resonance binding kinetics of anti-MSR1 mAbs, antibody-capture format
Settings: 25° C.; analyte His9-hMSR1; calculated from kinetic rates; NB = no binding observed
QUANTITY_MEASURED: pKd
Please keep in mind that pKd is minus log10 of the molar concentration; only the number is needed.

State the recorded pKd for this entry: H1H21227N-N297D: "The 21227N antibody was also produced as a third version with a N297D mutation" (antibody, V domains shown) VH: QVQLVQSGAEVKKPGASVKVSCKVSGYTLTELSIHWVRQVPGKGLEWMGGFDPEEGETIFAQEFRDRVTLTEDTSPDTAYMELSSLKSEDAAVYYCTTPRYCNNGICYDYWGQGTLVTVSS VL: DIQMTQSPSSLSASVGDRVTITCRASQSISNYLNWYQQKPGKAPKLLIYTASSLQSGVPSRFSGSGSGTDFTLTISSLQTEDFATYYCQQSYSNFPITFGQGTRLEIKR
10.48
